Where do these numbers come from? They come from paper PMC6464244.

Molecular target: T1, CSEP0064/BEC1054 (Blumeria graminis, UniProt N1JJ94 22-118)
T1 sequence: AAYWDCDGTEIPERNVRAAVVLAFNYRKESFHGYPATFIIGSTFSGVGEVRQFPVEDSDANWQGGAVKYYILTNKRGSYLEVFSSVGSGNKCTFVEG
Assay: NMR 1H-15N HSQC titration; fast exchange; small CSPs, saturation at ~50 molar equivalents; binding observed
Conditions: protein: recombinant; tags: Trx-His6 removed by TEV; NT-647 NHS amine label for MST; 15N for NMR; hairpin (predicted same fold as SRL RNA)
Parameter: Kd

>>> experimental_result("ACCTGCTCAGTACGAGAGGAACCGCAGGT (structured_DNA, DNA version of SRL RNA) [SRL DNA oligonucleotide]")
"> 10 µM"
